assayed-target: VEGFR2 (Homo sapiens, UniProt P35968)
Sequence (P35968 20-1356, species assumed): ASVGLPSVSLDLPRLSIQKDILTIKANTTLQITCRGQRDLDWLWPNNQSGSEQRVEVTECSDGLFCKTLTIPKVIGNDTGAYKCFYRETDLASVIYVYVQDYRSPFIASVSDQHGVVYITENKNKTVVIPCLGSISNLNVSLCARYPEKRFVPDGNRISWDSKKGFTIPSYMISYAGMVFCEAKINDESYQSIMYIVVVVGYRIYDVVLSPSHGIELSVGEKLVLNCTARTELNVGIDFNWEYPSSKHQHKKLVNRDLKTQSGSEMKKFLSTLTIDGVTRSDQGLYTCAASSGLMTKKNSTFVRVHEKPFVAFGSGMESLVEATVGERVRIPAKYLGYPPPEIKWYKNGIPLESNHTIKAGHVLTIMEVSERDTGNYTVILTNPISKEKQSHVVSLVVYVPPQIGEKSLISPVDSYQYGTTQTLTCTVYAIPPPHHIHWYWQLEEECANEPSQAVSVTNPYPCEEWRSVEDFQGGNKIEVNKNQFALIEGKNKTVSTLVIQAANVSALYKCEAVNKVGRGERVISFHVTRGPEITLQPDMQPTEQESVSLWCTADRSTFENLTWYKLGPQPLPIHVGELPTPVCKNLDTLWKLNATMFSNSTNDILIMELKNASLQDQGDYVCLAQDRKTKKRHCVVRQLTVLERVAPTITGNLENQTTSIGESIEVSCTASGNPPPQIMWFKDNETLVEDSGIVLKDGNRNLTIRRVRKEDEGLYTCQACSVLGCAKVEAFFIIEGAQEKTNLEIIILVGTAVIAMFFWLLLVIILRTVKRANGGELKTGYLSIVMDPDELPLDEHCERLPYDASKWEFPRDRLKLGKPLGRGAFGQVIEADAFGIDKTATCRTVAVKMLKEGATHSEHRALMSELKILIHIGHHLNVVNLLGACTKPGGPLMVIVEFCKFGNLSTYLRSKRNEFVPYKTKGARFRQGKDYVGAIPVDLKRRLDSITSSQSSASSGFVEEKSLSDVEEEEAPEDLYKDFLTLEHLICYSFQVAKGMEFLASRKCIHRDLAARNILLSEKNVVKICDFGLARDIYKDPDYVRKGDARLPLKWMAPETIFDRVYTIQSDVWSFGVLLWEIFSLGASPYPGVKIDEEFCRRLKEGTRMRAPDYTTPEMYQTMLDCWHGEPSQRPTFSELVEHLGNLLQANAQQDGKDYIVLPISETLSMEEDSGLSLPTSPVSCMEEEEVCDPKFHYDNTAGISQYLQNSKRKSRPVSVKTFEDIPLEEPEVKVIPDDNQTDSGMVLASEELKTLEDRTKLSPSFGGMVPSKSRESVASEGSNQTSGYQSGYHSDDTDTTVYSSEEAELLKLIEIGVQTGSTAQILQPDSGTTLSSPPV
condition-parameters: relative IC50: reported IC50 toward VEGFR2 divided by next lowest reported IC50 to any gene target
Field 'label' (enum: 1 / 0). Set to 1 when VEGFR2, rIC50 is strictly under 1; else 0.

Query: Please indicate whether the reported VEGFR2, rIC50 of CCS(=O)(=O)c1ccc2c(c1)C(=Cc1[nH]c3c(c1CN1CCOCC1)CCCC3)C(=O)N2 is strictly below 1.
Result: 0

Query: Please indicate whether the reported VEGFR2, rIC50 of COC(=O)c1ccc2c(c1)NC(=O)/C2=C(\Nc1ccc(N(CCCN(C)C)C(C)=O)cc1)c1ccccc1 is strictly below 1.
Result: 0

Query: Please indicate whether the reported VEGFR2, rIC50 of C[C@@H](Oc1ccc2[nH]nc(-c3nc4cc(N5CCN(C)CC5)ccc4[nH]3)c2c1)c1c(Cl)cncc1Cl is strictly below 1.
Result: 0

Query: Please indicate whether the reported VEGFR2, rIC50 of CCN1CCC(Nc2ccc3[nH]c(O)c(C(=C4N=c5ccccc5=N4)c4ccccc4)c3c2)CC1 is strictly below 1.
Result: 0

Query: Please indicate whether the reported VEGFR2, rIC50 of COc1ccc(N2Cc3cnc(Nc4ccccc4)nc3N([C@@H]3CC[C@@H](O)C3)C2=O)cc1 is strictly below 1.
Result: 1

---

assayed-target: VEGFR2 (Homo sapiens, UniProt P35968)
condition-parameters: relative IC50: reported IC50 toward VEGFR2 divided by next lowest reported IC50 to any gene target
measurement-name: VEGFR2, rIC50
Output spec: single numeric token, no unit.

Known results for compounds:
INSERT INTO measurements (compound, assayed_target, measured) VALUES
  ('CNC(=O)c1cc(Oc2ccc(NC(=O)Nc3ccc(Cl)c(C(F)(F)F)c3)c(F)c2)ccn1 [compound 11167602, Regorafenib]', 'VEGFR2 (Homo sapiens, UniProt P35968)', 8.4),
  ('CONC(=O)c1cc(Nc2ncnn3cc(-c4nnc(C(F)F)o4)c(C(C)C)c23)c(F)cc1F [compound 10073832]', 'VEGFR2 (Homo sapiens, UniProt P35968)', 1.0),
  ('CONC(=O)c1cc(Nc2ncnn3cc(-c4nnc(C)o4)c(C(C)C)c23)c(F)cc1F [compound 10478569, reference compound]', 'VEGFR2 (Homo sapiens, UniProt P35968)', 1.2);

Moving on to the next compound.
Given item COC(=O)c1ccc2c(c1)NC(=O)/C2=C(\Nc1ccc(N(CCN(C)C)C(C)=O)cc1)c1ccccc1 [compound 135528963] , the value recorded as its VEGFR2, rIC50 is 2.4

---

Here, each record is paired with measured VEGFR2, rIC50 data.
assayed-target: VEGFR2 (Homo sapiens, UniProt P35968)
condition-parameters: relative IC50: reported IC50 toward VEGFR2 divided by next lowest reported IC50 to any gene target

Known results for compounds:
INSERT INTO results (compound, measured) VALUES
  ('CNC(=O)c1cccc2cc(Oc3ccnc4cc(OCC5(N)CC5)c(OC)cc34)ccc12.Cl', 3.6),
  ('Fc1ccc2c(-c3nc4cc(N5CCC(N6CCCCC6)CC5)ccc4[nH]3)n[nH]c2c1', 1.6),
  ('CCc1nnc(-c2cn3ncnc(Nc4cc(C(=O)NOC)c(F)cc4F)c3c2C(C)C)o1 [compound 11374515, reference compound]', 1.0);

Given item CONC(=O)c1cc(Nc2ncnn3cc(-c4nnc(CC(F)(F)F)o4)c(C(C)C)c23)c(F)cc1F [compound 11455031, reference compound] , the value recorded as its VEGFR2, rIC50 is 1.0

Given item CONC(=O)c1cc(Nc2ncnn3cc(-c4nnco4)c(C(C)C)c23)c(F)cc1F [compound 11464544, reference compound] , the value recorded as its VEGFR2, rIC50 is 1.4

Given item NS(=O)(=O)c1ccc2c(c1)/C(=C/c1[nH]c3c(c1CCC(=O)O)CCCC3)C(=O)N2 [compound 5329165, Indolin-2-one deriv. 9c, reference compound] , the value recorded as its VEGFR2, rIC50 is 3.0

---

Here, each record is paired with measured VEGFR2, rIC50 data.
assayed-target: VEGFR2 (Homo sapiens)
condition-parameters: relative IC50: reported IC50 toward VEGFR2 divided by next lowest reported IC50 to any gene target

Known results for compounds:
INSERT INTO results (compound, measured) VALUES
  ('COC(=O)Nc1ccc(-c2c(OC3CCN(C)CC3)nc3c(-c4ccc(OC)c(OC)c4)cnn3c2N)cc1', 4.3),
  ('COC(=O)c1ccc2c(c1)NC(=O)/C2=C(\Nc1ccc(N(CCN(C)C)S(C)(=O)=O)cc1)c1ccccc1', 2.3),
  ('COC(=O)c1ccc2c(c1)NC(=O)/C2=C(\Nc1ccc(N(C)C(=O)CN2CCN(C)CC2)cc1)c1ccccc1 [compound 135476717, Nintedanib esylate]', 1.6),
  ('COc1ccc(N2Cc3cnc(Nc4ccccc4)nc3N([C@H]3CC[C@H](O)C3)C2=O)cc1', 0.5),
  ('Cc1cc2c(F)c(Oc3ncnn4cc(OC[C@@H](C)OC(=O)[C@@H](C)N)c(C)c34)ccc2[nH]1 [compound 11234052, Brivanib alaninate (Brivanib)]', 0.9),
  ('COC(=O)c1ccc2c(c1)NC(=O)/C2=C(\Nc1ccc(N(CC(=O)N(C)C)C(C)=O)cc1)c1ccccc1', 1.3),
  ('Cc1c[nH]c(/C=C2\C(=O)Nc3ccccc32)c1CCC(=O)O', 0.7),
  ('CCN1CCC(Nc2ccc3[nH]c(O)c(C(=C4N=c5ccccc5=N4)c4cccc(F)c4)c3c2)CC1', 0.6);

Moving on to the next compound.
Given item CCN1CCC(Nc2ccc3[nH]c(O)c(C(=C4N=c5ccccc5=N4)c4ccc(C)cc4)c3c2)CC1 , the value recorded as its VEGFR2, rIC50 is 1.6

---

Here, each record is paired with measured VEGFR2, rIC50 data.
assayed-target: VEGFR2 (Homo sapiens, UniProt P35968)
condition-parameters: relative IC50: reported IC50 toward VEGFR2 divided by next lowest reported IC50 to any gene target
Output spec: single numeric token, no unit.

INSERT INTO assay_data (compound, measured) VALUES
  ('COC(=O)c1ccc2c(c1)NC(=O)C2=C(Nc1ccc(CN(C)C)cc1)c1ccccc1', 2.3),
  ('COC(=O)c1ccc2c(C(=Nc3ccc(C(=O)N(C)CCN(C)C)cc3)c3ccccc3)c(O)[nH]c2c1', 2.2),
  ('COC(=O)c1ccc2c(C(=Nc3ccc(CN(C)C(=O)N(C)C)cc3)c3ccccc3)c(O)[nH]c2c1', 6.1);

VEGFR2 (Homo sapiens, UniProt P35968) VEGFR2, rIC50 of CNC(=O)c1cccc2cc(Oc3ccnc4cc(OCC5(N)CC5)c(OC)cc34)ccc12 is 3.6

VEGFR2 (Homo sapiens, UniProt P35968) VEGFR2, rIC50 of COc1cc2c(Nc3ccc(C#N)cc3F)ncnc2cc1OCCn1ccnn1 [compound 5329034, Anilinoquinazoline deriv. 36, reference compound] is 0.5

VEGFR2 (Homo sapiens, UniProt P35968) VEGFR2, rIC50 of Nc1c(C(=O)c2cc3cc(CN4CCOCC4)ccc3[nH]2)cnn1-c1cc(O)ccc1Cl is 5.6

VEGFR2 (Homo sapiens, UniProt P35968) VEGFR2, rIC50 of CONC(=O)c1cc(Nc2ncnn3cc(-c4nnc(CS(C)(=O)=O)o4)c(C(C)C)c23)c(F)cc1F [compound 10436729, reference compound] is 1.0

VEGFR2 (Homo sapiens, UniProt P35968) VEGFR2, rIC50 of NC(=O)c1c(OCc2c(F)cc(Br)cc2F)nsc1NC(=O)NCCCCN1CCCC1 is 0.4

VEGFR2 (Homo sapiens, UniProt P35968) VEGFR2, rIC50 of CCN1CCC(Nc2ccc3[nH]c(O)c(C(=C4N=c5ccccc5=N4)c4cc(F)cc(F)c4)c3c2)CC1 is 0.7

VEGFR2 (Homo sapiens, UniProt P35968) VEGFR2, rIC50 of O=C1c2ccc(O)c(O)c2OC[C@]1(O)Cc1ccc(O)c(O)c1 is 7.2

VEGFR2 (Homo sapiens, UniProt P35968) VEGFR2, rIC50 of CONC(=O)c1cc(Nc2ncnn3cc(-c4nc(C)no4)c(C(C)C)c23)c(F)cc1F [compound 11419379, reference compound] is 1.0

VEGFR2 (Homo sapiens, UniProt P35968) VEGFR2, rIC50 of COC(=O)c1ccc2c(c1)NC(=O)/C2=C(\Nc1ccc(CN2CCCCC2)cc1)c1ccccc1 is 1.1

VEGFR2 (Homo sapiens, UniProt P35968) VEGFR2, rIC50 of CONC(=O)c1cc(Nc2ncnn3cc(-c4nnc(C)[nH]4)c(C(C)C)c23)c(F)cc1F is 1.1

VEGFR2 (Homo sapiens, UniProt P35968) VEGFR2, rIC50 of CONC(=O)c1cc(Nc2ncnn3cc(-c4nnc(CC5CC5)o4)c(C(C)C)c23)c(F)cc1F [compound 11155938, reference compound] is 1.0

Where do these numbers come from? They come from patent US20240156825A1.
